The values you see were collected from BindingDB's records for doi:10.3109/14756360903179443.

Molecular target: Dihydrofolate reductase (Mycobacterium avium, UniProt O30463)
measured quantity: IC50

Some solved entries appear below for comparison.
INSERT INTO assay_data (entry_smiles, measured_quantity, meas_value) VALUES
  ('N=C(N)NC(=N)Nc1ccc(OCc2ccc(Br)cc2)cc1', 'IC50', '127 µM'),
  ('NC(N)=N/C(N)=N/c1ccc(OCc2ccc(Cl)cc2Cl)cc1', 'IC50', '111 µM'),
  ('N=C(N)NC(=N)Nc1ccc(OCCN2C(=O)c3ccccc3C2=O)cc1', 'IC50', '51.4 µM'),
  ('CC1(C)N=C(N)N=C(N)N1c1ccc(OCc2ccc(Cl)cc2Cl)cc1', 'IC50', '11.2 µM'),
  ('N=C(N)NC(=N)Nc1ccc(OCc2ccccc2Cl)cc1', 'IC50', '152 µM');

Now consider the entry below.
Please indicate IC50 recorded for `CC1(C)N=C(N)N=C(N)N1c1ccc(OCCN2C(=O)c3ccccc3C2=O)cc1`
44.6 µM

====

Biological target: Bifunctional dihydrofolate reductase-thymidylate synthase (Toxoplasma gondii, UniProt Q07422)
Sequence (Q07422 whole entry): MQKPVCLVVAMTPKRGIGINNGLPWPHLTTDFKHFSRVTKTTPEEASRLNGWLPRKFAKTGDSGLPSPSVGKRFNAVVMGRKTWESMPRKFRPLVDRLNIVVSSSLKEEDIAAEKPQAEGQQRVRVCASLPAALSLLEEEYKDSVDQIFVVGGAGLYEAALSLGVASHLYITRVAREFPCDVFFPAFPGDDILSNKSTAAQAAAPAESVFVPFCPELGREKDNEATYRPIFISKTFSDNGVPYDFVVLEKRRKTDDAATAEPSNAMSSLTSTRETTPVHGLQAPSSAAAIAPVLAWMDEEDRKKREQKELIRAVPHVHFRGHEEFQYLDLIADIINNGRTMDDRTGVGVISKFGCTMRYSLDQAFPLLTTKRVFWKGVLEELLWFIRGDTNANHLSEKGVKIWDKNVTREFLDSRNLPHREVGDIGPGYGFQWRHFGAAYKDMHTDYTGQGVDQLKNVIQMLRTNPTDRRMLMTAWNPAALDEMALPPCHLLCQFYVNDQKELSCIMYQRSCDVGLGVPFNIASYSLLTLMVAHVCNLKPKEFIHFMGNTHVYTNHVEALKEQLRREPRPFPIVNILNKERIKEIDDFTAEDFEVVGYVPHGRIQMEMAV
Experiment: Biological Assay
measured quantity: IC50 (nM)
The answer is to be given in nM; state only the numeric part.

Some solved entries appear below for comparison.
INSERT INTO assay_data (molecule, meas_value) VALUES
  ('N=C(N)NC(=N)Nc1ccc(OCc2ccc(Br)cc2)cc1', 21400),
  ('NC(N)=N/C(N)=N/c1ccc(OCc2ccc(-c3ccccc3)cc2)cc1', 111000),
  ('COc1cccc(COc2ccc(NC(=N)NC(=N)N)cc2)c1', 8400),
  ('CC1(C)N=C(N)N=C(N)N1c1ccc(OCc2ccc(-c3ccccc3)cc2)cc1', 12),
  ('N=C(N)NC(=N)Nc1ccc(OCc2ccccc2)cc1', 132000);

Please indicate IC50 recorded for `CC1(C)N=C(N)N=C(N)N1c1ccc(OCc2ccc(Cl)cc2Cl)cc1`
29

Please indicate IC50 recorded for `CC1(C)N=C(N)N=C(N)N1c1ccc(OCc2cccc(Cl)c2)cc1`
20

====

Target: Dihydrofolate reductase (Mycobacterium avium)
Sequence (O30463 whole entry): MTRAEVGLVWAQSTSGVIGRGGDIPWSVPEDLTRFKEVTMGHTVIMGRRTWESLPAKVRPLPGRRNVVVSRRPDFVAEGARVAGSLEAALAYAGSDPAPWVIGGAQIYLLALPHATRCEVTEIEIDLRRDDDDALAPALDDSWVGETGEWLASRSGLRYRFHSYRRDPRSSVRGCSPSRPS
measured quantity: IC50 (µM)
The answer is to be given in µM; state only the numeric part.

Some solved entries appear below for comparison.
INSERT INTO measurements (compound, measured_quantity, meas_value) VALUES
  ('CC1(C)N=C(N)N=C(N)N1c1ccc(OCc2ccccc2)cc1', 'IC50', 14.4),
  ('CC1(C)N=C(N)N=C(N)N1c1ccc(OCC(O)CN2C(=O)c3ccccc3C2=O)cc1 (stereo not drawn)', 'IC50', 154);

Write down the reported IC50 (system: Dihydrofolate reductase (Mycobacterium avium)) of `NC(N)=N/C(N)=N/c1ccc(OCc2cccc(Cl)c2)cc1`
63.8

====

Molecular target: Bifunctional dihydrofolate reductase-thymidylate synthase (Toxoplasma gondii)
Assay: Biological Assay
measured quantity: IC50
Record the result as a number with its unit.

Some solved entries appear below for comparison.
INSERT INTO assay_data (molecule, meas_value) VALUES
  ('N=C(N)NC(=N)Nc1ccc(OCCN2C(=O)c3ccccc3C2=O)cc1', '40300 nM'),
  ('CC1(C)N=C(N)N=C(N)N1c1ccc(OCc2ccccc2)cc1', '32 nM'),
  ('N=C(N)NC(=N)Nc1ccc(OCCCN2C(=O)c3ccccc3C2=O)cc1', '135000 nM'),
  ('COc1ccc(COc2ccc(N3C(N)=NC(N)=NC3(C)C)cc2)cc1', '19 nM'),
  ('CC1(C)N=C(N)N=C(N)N1c1ccc(OCCCN2C(=O)c3ccccc3C2=O)cc1', '169 nM');

Write down the reported IC50 (system: Bifunctional dihydrofolate reductase-thymidylate synthase (Toxoplasma gondii)) of `CC1(C)N=C(N)N=C(N)N1c1ccc(OCc2ccccc2Cl)cc1`
40 nM

Write down the reported IC50 (system: Bifunctional dihydrofolate reductase-thymidylate synthase (Toxoplasma gondii)) of `NC(N)=N/C(N)=N/c1ccc(OCc2ccc(Cl)cc2Cl)cc1`
111000 nM

Write down the reported IC50 (system: Bifunctional dihydrofolate reductase-thymidylate synthase (Toxoplasma gondii)) of CC1(C)N=C(N)N=C(N)N1c1ccc(OCC(O)CN2C(=O)c3ccccc3C2=O)cc1 (stereo not drawn)
523 nM

Write down the reported IC50 (system: Bifunctional dihydrofolate reductase-thymidylate synthase (Toxoplasma gondii)) of `CC1(C)N=C(N)N=C(N)N1c1ccc(OCc2ccc(Br)cc2)cc1`
33 nM

Write down the reported IC50 (system: Bifunctional dihydrofolate reductase-thymidylate synthase (Toxoplasma gondii)) of `N=C(N)NC(=N)Nc1ccc(OCc2ccccc2Cl)cc1`
9950 nM

Write down the reported IC50 (system: Bifunctional dihydrofolate reductase-thymidylate synthase (Toxoplasma gondii)) of `NC(N)=N/C(N)=N/c1ccc(OCc2cccc(Cl)c2)cc1`
58500 nM

Write down the reported IC50 (system: Bifunctional dihydrofolate reductase-thymidylate synthase (Toxoplasma gondii)) of `CC1(C)N=C(N)N=C(N)N1c1ccc(OCCN2C(=O)c3ccccc3C2=O)cc1`
424 nM

Write down the reported IC50 (system: Bifunctional dihydrofolate reductase-thymidylate synthase (Toxoplasma gondii)) of `CC1(C)N=C(N)N=C(N)N1c1ccc(OCCCCN2C(=O)c3ccccc3C2=O)cc1`
79 nM
